Method notes: NCI Yeast Anticancer Drug Screen. Data for the rad50 strain (AID 155)
Conditions used: S. cerevisiae rad50 strain growth inhibition; at 50.0 µM
The panel holds about 79,000 compounds, 15% with a hit somewhere; the sample as a whole holds those more often. Active and inactive are the calls of the source. Cut-off read from the data, not from the text of the source: active = growth inhibition above about 70%; inactive = the rest.
Possible outcomes: Yes = active, No = inactive

{"columns": ["Compound", "Class name"],
 "data": [
  ["CC(C)=CCC/C(C)=C/Cn1c(=O)cc[nH]c1=O", "No"],
  ["O=c1c(Cl)c(N2CCCCC2)cnn1-c1ccccc1", "No"],
  ["NCC(c1ccccc1)C1CCCCC1 (configuration not stated)", "No"],
  ["Cc1cc(Cl)cc(C(=O)O)c1O", "No"],
  ["CSc1n[nH]c(=O)c2nc[nH]c12", "No"],
  ["CCCCC(CC)COC(=O)COc1ccc(C(C)c2ccc(OCC(=O)OCC(CC)CCCC)cc2)cc1 (configuration not stated)", "No"],
  ["CC1(C)C(=O)CC[C@]2(C)[C@H]3C(=O)C=C4[C@H]5C[C@@](C)(C(=O)O)CC[C@]5(C)CC[C@@]4(C)[C@]3(C)CC[C@@H]12", "No"],
  ["CCN1CCCC(Nc2nc(Nc3cc(Cl)cc(Cl)c3)nc3ccc(Cl)cc23)C1 (configuration not stated)", "Yes"],
  ["c1csc(-c2cc(-c3ccsc3)c(-c3cccs3)s2)c1", "No"],
  ["CC1Cn2c(nnc2-c2ccccc2O)S1 (configuration not stated)", "No"],
  ["CCOc1ccc(/C=N/NC(=O)CCCCCCCCC(=O)N/N=C/c2ccc(OCC)c(OC)c2)cc1OC", "No"],
  ["CCOC(=O)C1=NN(c2ccccc2)C(=O)/C1=C\\N1CC(=O)NC1=S", "No"]
]}
